Reference source: the supplement of paper PMC13380429

System: Calu-3
Test: cell viability relative to DMSO; higher = less toxic
Conditions: 72 h; 1000 nM
Measured Endpoint: cell viability
# output: number + unit

Would you please look over these solved cases?
{"Compound String": "CCc1cc(/C(C)=N/OCc2ccc(C3CCCCC3)c(C(F)(F)F)c2)ccc1CN1CC(C(=O)O)C1", "cell viability": "96.6%"}
{"Compound String": "CCCCCCCC(=O)N[C@H](CN1CCCC1)[C@H](O)c1ccc2c(c1)OCCO2", "cell viability": "99.5%"}
{"Compound String": "C[C@]12CC[C@H](O)CC1=CC[C@@H]1[C@@H]2CC[C@]2(C)C(=O)CC[C@@H]12", "cell viability": "96.6%"}

Attention now shifts to the item below.
Req: Please look up its cell viability: COc1ccc(-n2c(C)c([N+](=O)[O-])c3ccc(O)cc32)cc1
Resp: 79.9%

* * *

Tested on: U2OS
Assay: cell viability relative to DMSO; higher = less toxic
Conditions: 72 h; 100 nM
Measured Endpoint: cell viability (%)
Numbers only, in %.

{"Compound": "CSc1nc(NC2CCCC2)c([N+](=O)[O-])c(NC2CCCC2)n1", "Output Unit": "%", "cell viability": 98.9}

# map each compound to its cell viability
1. OC[C@H]1O[C@@H](c2ccc(F)c(Cc3cc4ccccc4s3)c2)[C@H](O)[C@@H](O)[C@@H]1O
2. C=C1/C(=C\C=C2/CCC[C@]3(C)[C@@H]([C@H](C)CCCC(C)C)CC[C@@H]23)C[C@@H](O)C[C@@H]1O
3. N[C@@H](Cc1ccc(O)cc1)C(=O)NCC(=O)NCC(=O)O
4. Cc1cc(C)c2c(c1)[C@@H](N(Cc1cc(C(F)(F)F)cc(C(F)(F)F)c1)c1nnn(C)n1)CCCN2C[C@H]1CC[C@H](C(=O)O)CC1
5. O=C(O)[C@H]1CCCN(CCC=C(c2ccccc2)c2ccccc2)C1 (racemic)
6. Cc1ccc(/C=C2\CNC/C(=C\c3ccc(C)cc3)C2=O)cc1

Resp:
99.4
99
97.6
97.5
98.1
101

# map each compound to its cell viability
1. COc1ccc(-c2cc3c(C)nc(N)nc3n([C@H]3CC[C@H](OCCO)CC3)c2=O)cn1
2. CC(C)NCCCn1c(Sc2cc3c(cc2I)OCO3)nc2c(N)ncnc21
3. O=C(O)CCCc1c[nH]c2ccccc12
4. Cn1c(N2CCCCS2(=O)=O)nc(C(=O)NCc2ccc(F)cc2)c(O)c1=O
5. C[C@]12CC[C@H](O)CC1=CC[C@@H]1[C@@H]2CC[C@]2(C)C(=O)CC[C@@H]12
6. O=S(=O)(Cc1ccccc1)Nc1ccc(-c2ccc3c(cnn3-c3ccc(F)cc3)c2)c(C(F)(F)F)c1
7. CC1(C)OC(=O)C(OCC2CC2)=C1c1ccc(S(C)(=O)=O)cc1

Resp:
1. 89.1
2. 95.6
3. 101
4. 94.5
5. 102
6. 100
7. 95.3

# map each compound to its cell viability
1. CCCN1CCN(c2ccc(C(=O)NC3(C(=O)NCC#N)CCCCC3)cc2)CC1
2. C[C@]12CC[C@H](O)C[C@H]1CC[C@@H]1[C@@H]2CC[C@]2(C)[C@@H](C3=CC(=O)OC3)CC[C@]12O
3. O=C(O)[C@H]1O[C@@H](Oc2cc3oc(-c4ccccc4)cc(=O)c3c(O)c2O)[C@H](O)[C@@H](O)[C@@H]1O

Resp:
1: 95; 2: 101; 3: 104

* * *

Tested on: A549-ACE2 infected with SARS-CoV-2
Assay: cell count relative to DMSO; higher = less toxic
Conditions: 0.3 µM; 24 h
Where a name gives a salt, the structure may show the parent alone.
Measured Endpoint: cell count (%)
Give bare numbers, in %.

Would you please look over these solved cases?
{"Molecule": "O=C(O)CCCCCCCC(=O)O [azelaic-acid]", "Study System": "A549-ACE2 infected with SARS-CoV-2", "cell count / %": 103}
{"Molecule": "O=C(Nc1ncc(SCCN2CCCC2)s1)[C@]1(c2ccc(S(=O)(=O)C3CC3)cc2)C[C@H]1C1CCCCC1", "Study System": "A549-ACE2 infected with SARS-CoV-2", "cell count / %": 101}
{"Molecule": "CCCN1CCN(c2ccc(C(=O)NC3(C(=O)NCC#N)CCCCC3)cc2)CC1 [balicatib]", "Study System": "A549-ACE2 infected with SARS-CoV-2", "cell count / %": 107}

Attention now shifts to the item below.
Req: Please look up its cell count: CC/C(=C(\c1ccc(O)cc1)c1ccc(OCCNC)cc1)c1ccccc1 [Endoxifen HCl]
Resp: 98

* * *

For each entry below, report its cell viability value.
Tested on: HepG2
Experiment: cell viability relative to DMSO; higher = less toxic
Settings: 72 h; 10000 nM
Answers are plain numbers, in %.

Would you please look over these solved cases?
{"Compound": "c1ccc(-c2cnn3cc(-c4ccc(OCCN5CCOCC5)cc4)cnc23)cc1", "Study System": "HepG2", "Output Unit": "%", "cell viability": 50.7}
{"Compound": "CC(=O)c1ccc(S(=O)(=O)NC(=O)NC2CCCCC2)cc1 [acetohexamide]", "Study System": "HepG2", "Output Unit": "%", "cell viability": 106}
{"Compound": "N#Cc1ccc(-c2ccc(S(=O)(=O)Nc3cccc(N)n3)cc2)cc1", "Study System": "HepG2", "Output Unit": "%", "cell viability": 79}
{"Compound": "NCCCCCCCCCCNS(=O)(=O)c1cccc2c(Cl)cccc12", "Study System": "HepG2", "Output Unit": "%", "cell viability": 95.8}
{"Compound": "CCCCCCCCCCOc1cc2c(O)c(C(=O)OCC)cnc2cc1OCC [decoquinate]", "Study System": "HepG2", "Output Unit": "%", "cell viability": 96.2}
{"Compound": "CC(=O)[C@H]1CC[C@H]2[C@@H]3CC[C@H]4C[C@](C)(O)CC[C@]4(C)[C@H]3CC[C@]12C", "Study System": "HepG2", "Output Unit": "%", "cell viability": 101}
{"Compound": "C#C[C@]1(O)CC[C@H]2[C@@H]3CCc4cc(O)ccc4[C@H]3CC[C@@]21C", "Study System": "HepG2", "Output Unit": "%", "cell viability": 65.7}
{"Compound": "CNCc1ccc(-c2cc(-c3nc(-c4ccc(S(=O)(=O)C(C)C)cc4)cnc3N)on2)cc1", "Study System": "HepG2", "Output Unit": "%", "cell viability": 19.1}

Attention now shifts to the item below.
Req: Entry O=C1NCC2(CCN(CCc3ccccc3)CC2)O1 [fenspiride] , system HepG2: what cell viability was measured?
Resp: 103

* * *

For each entry below, report its cell viability value.
Test system: HepG2
Experiment: cell viability relative to DMSO; higher = less toxic
Conditions: 72 h; 100 nM

{"Compound String": "CC[C@H](C)[C@H]1O[C@]2(CC[C@@H]1C)C[C@@H]1C[C@@H](C/C=C(\\C)[C@@H](O[C@H]3C[C@H](OC)[C@@H](O[C@H]4C[C@H](OC)[C@@H](O)[C@H](C)O4)[C@H](C)O3)[C@@H](C)/C=C/C=C3\\CO[C@@H]4[C@H](O)C(C)=C[C@@H](C(=O)O1)[C@]34O)O2", "Observed": "108%"}
{"Compound String": "Nc1nc2ccc(Cl)cc2c2nc(-c3ccco3)nn12", "Observed": "87.7%"}

Req: Please look up its cell viability: CCOCCn1c(N2CCCN(C)CC2)nc2ccccc21
Resp: 92.7%

* * *

System: HepG2
Test: cell viability relative to DMSO; higher = less toxic
Details: 72 h; 100 nM
For each entry below, report its cell viability value.
Numbers only, in %.

{"Molecule": "CCCCCCCCCCOc1cc2c(O)c(C(=O)OCC)cnc2cc1OCC [decoquinate]", "Measured Endpoint": "cell viability", "Observed": 98.9}
{"Molecule": "N[C@@H]1CCN(c2cccnc2)C1 [ABT-202]", "Measured Endpoint": "cell viability", "Observed": 104}
{"Molecule": "CN(CCc1ccc(Cl)c(Cl)c1)CCN1CCCC1 [BD-1008]", "Measured Endpoint": "cell viability", "Observed": 104}
{"Molecule": "CC[C@]1(O)C[C@@H]2CN(CCc3c([nH]c4ccccc34)[C@@](C(=O)OC)(c3cc4c(cc3OC)N(C)[C@H]3[C@@](O)(C(=O)OC)[C@H](OC(C)=O)[C@]5(CC)C=CCN6CC[C@]43[C@@H]65)C2)C1 [Vinblastine (sulfate)]", "Measured Endpoint": "cell viability", "Observed": 34.7}

# map each molecule to its cell viability
1. c1cnc2cc3c(cc2n1)[C@@H]1CNC[C@H]3C1 [varenicline]
2. CCCN(CCC)[C@@H]1CCc2c(OC)cccc2[C@@H]1C [UH-232-(+)]
3. Nc1ncnc2c1ncn2[C@@H]1O[C@H](CO)[C@@H](O)[C@H]1O [adenosine]
4. CC(CCc1ccccc1)NCC(O)c1ccc(O)c(C(N)=O)c1 (stereo not drawn) [labetalol]

Resp:
[90.4, 87.2, 96.7, 102]
